tested on: NCI-H23 lung; test: NCI tumour cell line growth inhibition, 48 h

{"columns": ["compound", "GI50"],
 "data": [
  ["O=C1/C(=C/c2ccc(O)c([N+](=O)[O-])c2)CCC/C1=C\\c1ccc(O)c([N+](=O)[O-])c1", "8.14 µM"],
  ["CC1(C)NCCC[C@]2(C)[C@H]3C=CC4=C5C[C@](C)(CO)CC[C@]5(C)CC[C@@]4(C)[C@]3(C)CC[C@@H]12", "3.15 µM"],
  ["COc1cc(C(=O)O[C@H](C(=O)NCCNC(=O)[C@@H](OC(=O)c2cc(OC)cc3c(C)cccc23)[C@]2(C)CO2)[C@]2(C)CO2)c2cccc(C)c2c1", "< 0.01 µM"],
  ["CC([C@H]1CCC2C3CCC4C[C@@H](NC=O)CC[C@]4(C)C3CC[C@@]21C)N(C)C (stereo partly drawn)", "4.73 µM"],
  ["CCN1C(=O)N(CC)C2C1NN=c1s/c(=C3\\C(=O)N(CC(C)C)c4ccccc43)c(=O)n12 (stereo not drawn)", "2.19 µM"],
  ["c1ccc(C(=NNc2nc3ccccc3o2)c2ccccn2)nc1", "0.0617 µM"],
  ["CC(=O)OCC1OC(OC2CC3C(C)(C)C(OC(C)=O)CC[C@]3(C)C3CCC45CC4(CC[C@H]5C(C)CC(O)[C@@H](O)C(C)(C)O)[C@]23C)C(O)C(O)C1O (stereo partly drawn)", "13.5 µM"],
  ["CCCCCNC(=O)[C@@H]1CCCN2C(=O)CC[C@H](NC(=O)[C@H](Cc3ccc(OP(=O)(O)O)cc3)NC(C)=O)C(=O)N12", "> 25 µM"]
]}
